All figures here come from patent US8268882B2.

System: IL-2 production in Jurkat cells
Experimental Protocol: cells
Assay type: cell-based, human
Experimental Setup: Homo sapiens, Jurkat, 24 h, read-out: immunosuppression IL-2 (IC50)
Quantity Measured: IC50 (nM)
Lab book: enter the figure in nM, no units written.

Here are 2 compounds together with their reported answers.
[[record]]
compound = "CC(C)[C@]1(O)[C@H](Cl)[C@@H]2O[C@]23[C@@]2(OC(=O)O[C@H]12)[C@H](Cl)C[C@H]1C2=C(CC[C@@]13C)C(=O)OC2"
target_entity = "IL-2 production in Jurkat cells"
measurement = 9

[[record]]
compound = "CC(C)[C@]12O[C@H]1[C@@H]1O[C@]13[C@]1(O[C@H]1C[C@H]1C4=C(CC[C@@]13C)C(=O)OC4)[C@@H]2OC(=O)C(=O)O[C@@H]1[C@@]2(C(C)C)O[C@H]2[C@@H]2O[C@]23[C@]12O[C@H]2C[C@H]1C2=C(CC[C@@]13C)C(=O)OC2"
target_entity = "IL-2 production in Jurkat cells"
measurement = 2


Please examine the following record next.
Using the record for `CC(C)[C@]12O[C@H]1[C@@H]1O[C@]13[C@@]1(OC(=O)O[C@H]21)[C@H](Cl)C[C@H]1C2=C(CC[C@@]13C)C(=O)OC2` , state its measured IC50. 9

====

Experimental Protocol: in vitro
Experimental Setup: human
List of EC50 values.
Lab book: enter the figure in nM, no units written.

Here are 2 compounds together with their reported answers.
[[record]]
compound = "CC(C)[C@]12O[C@H]1[C@@H]1O[C@]13[C@]1(O[C@H]1C[C@H]1C4=C(CC[C@@]13C)C(=O)OC4)[C@@H]2OC(=O)C(=O)O[C@@H]1[C@@]2(C(C)C)O[C@H]2[C@@H]2O[C@]23[C@]12O[C@H]2C[C@H]1C2=C(CC[C@@]13C)C(=O)OC2 [PG782]"
quantity_measured = "EC50"
measurement = 53

[[record]]
compound = "CC(C)[C@]12O[C@H]1[C@@H]1O[C@]13[C@@]1(OC(=O)O[C@H]21)[C@H](Cl)C[C@H]1C2=C(CC[C@@]13C)C(=O)OC2 [PG762]"
quantity_measured = "EC50"
measurement = 60


Please examine the following record next.
Using the record for CC(C)[C@]1(O)[C@H](Cl)[C@@H]2O[C@]23[C@@]2(OC(=O)O[C@H]12)[C@H](Cl)C[C@H]1C2=C(CC[C@@]13C)C(=O)OC2 [PG757] , state its measured EC50. 32
